Entries and their measured viability, T/C follow.
# Tested on: 242566-281-R-J2-PDC complex spheroid viability;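 also: spheroids exposed to compound for 7 days before readout; 100% = DMSO vehicle control wells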
# EXPERIMENT_SUMMARY: Anticancer human tumor 242566-281-R-J2-PDC patient-derived pancreatic carcinoma cell line growth inhibition [RAS]
# EXPERIMENTAL_SETUP: second compound 0.000949 µM; first compound 0.01 µM; hits give low values
Response body: numeric value in %, unit text excluded.

For orientation, consider the following solved cases.
CC(C)n1nc(-c2ccc3oc(N)nc3c2)c2c(N)ncnc21 + CCn1c(-c2cccnc2C(C)OC)c2c3cc(ccc31)N1CCOC(CC(NC(=O)C(C(C)C)N(C)C(=O)C3(F)CCN(C(=O)C#CC(C)(C)N(C)C)CC3)C(=O)N3CCCC(N3)C(=O)OCC(C)(C)C2)C1; 79.8
Nc1ccn(C2OC(CO)C(O)C2(F)F)c(=O)n1 (centres undefined) + CCn1c(-c2cc(N3CCN(C)CC3)cnc2C(C)OC)c2c3cc(ccc31)-c1csc(n1)CC(NC(=O)C1CC1C)C(=O)N1CCCC(N1)C(=O)OCC(C)(C)C2; 87.7

-- ask State the recorded viability, T/C for this entry: CC(C)n1nc(-c2ccc3oc(N)nc3c2)c2c(N)ncnc21 + CCn1c(-c2cc(N3CCN(C)CC3)cnc2C(C)OC)c2c3cc(ccc31)-c1csc(n1)CC(NC(=O)C1CC1C)C(=O)N1CCCC(N1)C(=O)OCC(C)(C)C2
-- reply 71.3

-- ask State the recorded viability, T/C for this entry: C=CC(=O)Nc1cc(Nc2nccc(-c3cn(C)c4ccccc34)n2)c(OC)cc1N(C)CCN(C)C + CCn1c(-c2cc(N3CCN(C)CC3)cnc2C(C)OC)c2c3cc(ccc31)-c1csc(n1)CC(NC(=O)C1CC1C)C(=O)N1CCCC(N1)C(=O)OCC(C)(C)C2
-- reply 90

These data points were gathered from PubChem BioAssay AID2060910.
